Source: the supplement of paper PMC10981050

Tested on: K562
assay summary: cell viability relative to vehicle control; higher = less cytotoxic;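 further: after 48 h exposure read by CellTiter-Glo luminescence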
test parameters: 10 µM; SRSF2 genotype: SRSF2 wt/wt
measured property: cell viability (%)
// note: answer is a bare numeric in %

Use the examples below as a reference point.
molecule | cell viability / %
Nc1ccc(S(=O)(=O)Nc2nccs2)cc1 | 95.4
CC(=O)c1ccc(C)cc1O [2'-Hydroxy-4'-methylacetophenone] | 104
Cc1[nH]c(=O)c(C#N)cc1-c1ccncc1 | 94.1
CC(=O)Oc1ccccc1C(=O)Nc1ncc([N+](=O)[O-])s1 [Nitazoxanide (Alinia, Annita)] | 78.4
C=C(C)[C@@H]1CC[C@]2(C=O)CC[C@]3(C)[C@H](CC[C@@H]4[C@@]5(C)CC[C@H](O)C(C)(C)[C@@H]5CC[C@]43C)[C@@H]12 | 102
Cc1ccc(S(=O)(=O)OCC(=O)Nc2ccc(C(=O)O)c(O)c2)cc1 | 97.9
CC(C)(O)CC[C@@H](O)[C@](C)(O)[C@H]1CC[C@@]2(O)C3=CC(=O)[C@@H]4C[C@@H](O)[C@@H](O)C[C@]4(C)[C@H]3CC[C@]12C [20-Hydroxyecdysone] | 102

// sample Nc1c(CC(=O)O)cccc1C(=O)c1ccc(Br)cc1 [Bromfenac Sodium] , its cell viability was 97.3

====

Tested on: OCI-AML2
assay summary: cell viability relative to vehicle control; higher = less cytotoxic
test parameters: 10 µM; SRSF2 genotype: wt/wt
Structures can show the parent of a compound that is named as a salt.
measured property: cell viability (%)
Return type: number; implicit unit %.

Below: 10 compounds and their reported cell viability.
compound | cell viability (%)
C[C@H](NCc1ccc(OCc2cccc(F)c2)cc1)C(N)=O | 106
COC(=O)CCSCc1ccc(-c2onc(C)c2NC(=O)OC(C)c2ccccc2Cl)cc1 (centres undefined) | 100
CCOP(=O)(OCC)C(=Cc1cc(C(C)(C)C)c(O)c(C(C)(C)C)c1)P(=O)(OCC)OCC | 97
C/C=C/c1ccc(OC)cc1 [Trans-Anethole] | 116
N#Cc1ccc2[nH]c(O)c(-c3ccc(CN4CCOCC4)cn3)c2c1 | 123
Nc1nnc(-c2cccc(Cl)c2Cl)c(N)n1 | 98.3
OC[C@H]1O[C@@H](c2ccc(Cl)c(Cc3ccc(O[C@H]4CCOC4)cc3)c2)[C@H](O)[C@@H](O)[C@@H]1O | 105
O=C(Cn1nnc(-c2ccncc2)c1-c1ccccc1)Nc1ccc(-c2ccccc2)cn1 | 40.8
CC(C)CC(NC(=O)C(Cc1ccccc1)CC(O)C(Cc1ccccc1)NC(=O)OC(C)(C)C)C(=O)NC(Cc1ccccc1)C(N)=O (centres undefined) | 120
C[C@H]1COC2=C1C(=O)C(=O)c1c2ccc2c1CCCC2(C)C | 46.5

Query CN(C)CCC=C1c2ccccc2CCc2ccccc21 [Amitriptyline HCl] yields cell viability of 89.2

# cell viability of COc1cc(/C=C/C(=O)N2CCN(CC(=O)N3CCCC3)CC2)cc(OC)c1OC [Cinepazide maleate] = 108

Record "C[C@@H]1CCCC2=CC(=O)[C@@H]3[C@@H](C3(C)C)[C@]21C" , field cell viability: 109

The recorded cell viability for "CC(C)n1ncnc1-c1cn2c(n1)-c1ccc(O[C@@H](C)C(N)=O)cc1OCC2" is 34.3

Consider "COc1ccc(S(=O)(=O)N(C(C)=O)c2ccccc2/C=C/c2cc[n+]([O-])cc2)cc1" . Its measured cell viability is 9.13

====

Tested on: OCI-AML2
assay summary: cell viability relative to vehicle control; higher = less cytotoxic
test parameters: 10 µM; SRSF2 genotype: wt/wt
measured property: cell viability
Give me the value, and tack the unit on after it.

molecule | cell viability
Cn1c(O)c(C2=c3ccccc3=NC2=O)c2ccccc21 | 0.46%
C[C@H]1Oc2cc(cnc2N)-c2c(nn(C)c2C#N)CN(C)C(=O)c2ccc(F)cc21 | 104%
Cc1cc2c(C(=O)NCC(C)c3ccccc3)c(O)c(O)cc2c(O)c1-c1c(C)cc2c(C(=O)NCC(C)c3ccccc3)c(O)c(O)cc2c1O (centres undefined) | 36%

# molecule "Nc1cc(C(Cl)=C(Cl)Cl)c(S(N)(=O)=O)cc1S(N)(=O)=O" ; its cell viability = 112%

Recorded result, Cc1ccc(NS(=O)(=O)c2ccc3c(c2)C2C=CCC2C(c2ccc(C(=O)O)cc2)N3)cc1C (centres undefined) , cell viability: 117%

Entry "COc1cc(C=O)c([N+](=O)[O-])cc1OC" ; cell viability = 125%

# cell viability of "CC(=O)Oc1ccccc1C(=O)O" = 96.7%

Summary for this molecule, "CN1CCN(CCCNc2ncc(Cl)c(-c3cc4c(C(=O)NC5CC5)cccc4s3)n2)CC1" : cell viability is 72.7%

Documented cell viability of "CCCCCCCCCCCC1=C(O)C(=O)C=C(O)C1=O" : 94.6%

====

Here, each record is paired with measured cell viability data.
Test system: OCI-AML2
assay summary: cell viability relative to vehicle control; higher = less cytotoxic
test parameters: 10 µM; SRSF2 genotype: P95H/wt
Give the quantity in %, number only.

compound | scale unit | cell viability
CC(C)Cc1ccc(C(C)C(=O)O)cc1 (stereo unspecified) [Ibuprofen (Advil)] | % | 87.7

Observed cell viability on OCI-AML2, entry CCN(CC)c1ccc2c(-c3ccccc3C(=O)O)c3ccc(=[N+](CC)CC)cc-3oc2c1 [Rhodamine B] , equals 58.7

Form: item Cc1cc(C(C)Nc2ccccc2)c2nc(N3CCOCC3)cc(=O)n2c1 (stereo unspecified) ; test system OCI-AML2; cell viability: 73.4

The compound COc1ccc([C@@H]2OC[C@H]3[C@@H]2CO[C@@H]3c2ccc3c(c2)OCO3)cc1OC [Fargesin] , tested on OCI-AML2, showed cell viability of 88.6

Field cell viability (system: OCI-AML2) for entry CCOC(=O)OC(C)OC1=C(C(=O)Nc2ccccn2)N(C)S(=O)(=O)c2ccccc21 (stereo unspecified) [Ampiroxicam] = 104

Sample CC(/C=C/C=C(\C)C(=O)O[C@@H]1O[C@H](CO)[C@@H](O)[C@H](O)[C@H]1O)=C\C=C\C=C(C)\C=C\C=C(/C)C(=O)O[C@@H]1O[C@H](CO[C@@H]2O[C@H](CO)[C@@H](O)[C@H](O)[C@H]2O)[C@@H](O)[C@H](O)[C@H]1O [Crocin II] , system: OCI-AML2. Its cell viability is 97.4

====

Tested on: MARIMO
assay summary: cell viability relative to vehicle control; higher = less cytotoxic
test parameters: 10 µM; SRSF2 genotype: SRSF2 P95H/wt
Structures can show the parent of a compound that is named as a salt.
Measured cell viability values are reported for all entries that follow.
# value in %; strip the unit string

compound | scale unit | cell viability
COc1cccc2c1c(O)c(C(=O)N(C)c1ccc(C(F)(F)F)cc1)c(=O)n2C | % | 109
CCCCN1CCCCC1C(=O)Nc1c(C)cccc1C (stereo not drawn) [Bupivacaine hydrochloride (Marcain)] | % | 97.7
C[C@@H]1O[C@@H](OC[C@H]2O[C@@H](Oc3cc(O)c4c(c3)O[C@H](c3ccc(O)cc3)CC4=O)[C@H](O)[C@@H](O)[C@@H]2O)[C@H](O)[C@H](O)[C@H]1O | % | 98.2
CC#CC(=O)Nc1ccc2ncnc(Nc3cccc(Br)c3)c2c1 | % | 34.7
Nc1ccc(O)c(C(=O)O)c1 | % | 89.8
O=C1CCCC(=O)C1C(=O)c1ccc(C(F)(F)F)cc1[N+](=O)[O-] | % | 103
OCC(O)C(O)C(O)C(O)CO (stereo not drawn) | % | 107

Form field cell viability, entry "COc1cccc2cc(-c3nc([C@H]4CC[C@H](C(=O)O)CC4)n4ncnc(N)c34)[nH]c12" : 51.5

====

Tested on: MOLM14
assay summary: cell viability relative to vehicle control; higher = less cytotoxic
test parameters: 10 µM; SRSF2 genotype: SRSF2 P95H/wt
Structures can show the parent of a compound that is named as a salt.
measured property: cell viability (%)
Please state the figure in %; there is no need to write the unit.

Recorded results for 6 compounds are shown here.
compound | scale unit | cell viability
CCc1c(Cl)c(O)c(Cl)c(O)c1C(=O)O[C@H]1[C@H](O)[C@H](OC)[C@H](OC/C2=C\C=C\C[C@H](O)/C(C)=C/[C@H](CC)[C@@H](O[C@@H]3OC(C)(C)[C@@H](OC(=O)C(C)C)[C@H](O)[C@@H]3O)/C(C)=C/C(C)=C/C[C@@H]([C@@H](C)O)OC2=O)O[C@@H]1C | % | 74.9
O=C(Nc1ccccc1-c1cn2c(CN3CC[C@@H](O)C3)csc2n1)c1ccc2ccccc2c1 | % | 72.4
COC(=O)Nc1nc2cc(C(=O)c3cccs3)ccc2[nH]1 | % | 1.15
CC1OC(OC2C(OC3CCC4(C)C(CCC5(C)C4CC=C4C6CC(C)(C)CCC6(C(=O)OC6OC(COC7OC(CO)C(O)C(O)C7O)C(O)C(O)C6O)CCC45C)C3(C)CO)OCC(O)C2O)C(O)C(OC2OC(CO)C(O)C(O)C2O)C1O (configuration not stated) | % | 102
COc1cc2c(cc1OC)-c1cc3ccc4c(c3c[n+]1CC2)OCO4 [Epiberberine] | % | 94.8
CCc1ccc(CCOc2ccc(CC3SC(=O)NC3=O)cc2)nc1 (configuration not stated) [Pioglitazone (Actos)] | % | 102

--- query ---
The compound COc1ccc2cc3[n+](cc2c1OC)CCc1cc2c(cc1-3)OCO2 [Berberine Sulfate] on MOLM14: cell viability was 71
